# Tested on: 519858-162-T-J1-PDC complex spheroid growth, % test/control
# test-summary: Anticancer human tumor 519858-162-T-J1-PDC patient-derived colon adenocarcinoma cell line growth inhibition [Asc]
# study-conditions: second compound 0.01 µM; first compound 0.0316 µM; stronger effect = lower value
reported-property: viability, T/C (%)
# number only, unit % dropped from output

compound: C=C(F)C(=O)N1CCN(c2nc(OCC3CCCN3C)nc3c2CCN(c2cccc4cccc(Cl)c24)C3)CC1CC#N (stereo not drawn) + CNC(C)C(=O)NC1CN(S(=O)(=O)c2cccc(S(=O)(=O)N3CCC4CCC(C(=O)NC(c5ccccc5)c5ccccc5)N4C(=O)C(NC(=O)C(C)NC)C3)c2)CCC2CCC(C(=O)NC(c3ccccc3)c3ccccc3)N2C1=O
reading-unit: %
viability, T/C: 104

Provide viability, T/C value for the following compound: O=C(c1cc(Cc2n[nH]c(=O)c3ccccc23)ccc1F)N1CCN(C(=O)C2CC2)CC1 + CNC(C)C(=O)NC1CN(S(=O)(=O)c2cccc(S(=O)(=O)N3CCC4CCC(C(=O)NC(c5ccccc5)c5ccccc5)N4C(=O)C(NC(=O)C(C)NC)C3)c2)CCC2CCC(C(=O)NC(c3ccccc3)c3ccccc3)N2C1=O
127

Provide viability, T/C value for the following compound: Cn1ncnc1[C@H]1c2n[nH]c(=O)c3cc(F)cc(c23)N[C@@H]1c1ccc(F)cc1 + CNC(C)C(=O)NC1CN(S(=O)(=O)c2cccc(S(=O)(=O)N3CCC4CCC(C(=O)NC(c5ccccc5)c5ccccc5)N4C(=O)C(NC(=O)C(C)NC)C3)c2)CCC2CCC(C(=O)NC(c3ccccc3)c3ccccc3)N2C1=O
103

====

Each record here notes measured viability, T/C.
# System: 519858-162-T-J1-PDC complex spheroid growth, % test/control
# test-summary: Anticancer human tumor 519858-162-T-J1-PDC cell line growth inhibition [Asc];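 note: seven day drug exposure begun three days after spheroid seeding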;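 for viability, T/C: 100% = DMSO vehicle wells and lower values mean less viable spheroid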
# study-conditions: second compound 1 µM; first compound 0.1 µM; stronger effect = lower value
# number only, unit % dropped from output

Observe how each entry below is paired with its result.
molecule: CCN1CCN(Cc2ccc(Nc3ncc(F)c(-c4cc(F)c5nc(C)n(C(C)C)c5c4)n3)nc2)CC1 + Cc1c(S(C)(=O)=O)c(-c2cc(F)cc(N3CCN(c4ccc(NS(=O)(=O)c5ccc(NC(CCN6CCC(C(=O)OCCCP(=O)(O)O)CC6)CSc6ccccc6)c(S(=O)(=O)C(F)(F)F)c5)cc4)CC3)c2)c(-c2ccc(Cl)cc2)n1C(C)C
viability, T/C / %: 79
--
molecule: C=CC(=O)N1CCN(c2nc(=O)n(-c3c(C)ccnc3C(C)C)c3nc(-c4c(O)cccc4F)c(F)cc23)C(C)C1 (stereo not drawn) + CNC(C)C(=O)NC1CN(S(=O)(=O)c2cccc(S(=O)(=O)N3CCC4CCC(C(=O)NC(c5ccccc5)c5ccccc5)N4C(=O)C(NC(=O)C(C)NC)C3)c2)CCC2CCC(C(=O)NC(c3ccccc3)c3ccccc3)N2C1=O
viability, T/C / %: 90.3

Could you now consider this next molecule?
Under 519858-162-T-J1-PDC complex spheroid growth, % test/control: report viability, T/C of Cn1ncnc1[C@H]1c2n[nH]c(=O)c3cc(F)cc(c23)N[C@@H]1c1ccc(F)cc1 + CNC(C)C(=O)NC1CN(S(=O)(=O)c2cccc(S(=O)(=O)N3CCC4CCC(C(=O)NC(c5ccccc5)c5ccccc5)N4C(=O)C(NC(=O)C(C)NC)C3)c2)CCC2CCC(C(=O)NC(c3ccccc3)c3ccccc3)N2C1=O .
78.1

====

# Test system: 519858-162-T-J1-PDC complex spheroid growth, % test/control
# test-summary: Anticancer human tumor 519858-162-T-J1-PDC cell line growth inhibition [Asc];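 note: seven day drug exposure begun three days after spheroid seeding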
# study-conditions: curve of first compound; second compound 0.0316 µM
pIC50: −log10 of the molar value.
reported-property: pIC50

compound: CCN1CCN(Cc2ccc(Nc3ncc(F)c(-c4cc(F)c5nc(C)n(C(C)C)c5c4)n3)nc2)CC1 + Cc1c(S(C)(=O)=O)c(-c2cc(F)cc(N3CCN(c4ccc(NS(=O)(=O)c5ccc(NC(CCN6CCC(C(=O)OCCCP(=O)(O)O)CC6)CSc6ccccc6)c(S(=O)(=O)C(F)(F)F)c5)cc4)CC3)c2)c(-c2ccc(Cl)cc2)n1C(C)C
target-of-assay: 519858-162-T-J1-PDC complex spheroid growth, % test/control
result: < 6.00

compound: Cn1ncnc1[C@H]1c2n[nH]c(=O)c3cc(F)cc(c23)N[C@@H]1c1ccc(F)cc1 + Cc1c(S(C)(=O)=O)c(-c2cc(F)cc(N3CCN(c4ccc(NS(=O)(=O)c5ccc(NC(CCN6CCC(C(=O)OCCCP(=O)(O)O)CC6)CSc6ccccc6)c(S(=O)(=O)C(F)(F)F)c5)cc4)CC3)c2)c(-c2ccc(Cl)cc2)n1C(C)C
target-of-assay: 519858-162-T-J1-PDC complex spheroid growth, % test/control
result: < 7.00

compound: COc1c(OCCCN2CCOCC2)ccc2c3n(c(=NC(=O)c4cnc(N)nc4)nc12)CCN3 + Cc1c(S(C)(=O)=O)c(-c2cc(F)cc(N3CCN(c4ccc(NS(=O)(=O)c5ccc(NC(CCN6CCC(C(=O)OCCCP(=O)(O)O)CC6)CSc6ccccc6)c(S(=O)(=O)C(F)(F)F)c5)cc4)CC3)c2)c(-c2ccc(Cl)cc2)n1C(C)C
target-of-assay: 519858-162-T-J1-PDC complex spheroid growth, % test/control
result: < 6.00

compound: Cn1ncnc1[C@H]1c2n[nH]c(=O)c3cc(F)cc(c23)N[C@@H]1c1ccc(F)cc1 + CNC(C)C(=O)NC1CN(S(=O)(=O)c2cccc(S(=O)(=O)N3CCC4CCC(C(=O)NC(c5ccccc5)c5ccccc5)N4C(=O)C(NC(=O)C(C)NC)C3)c2)CCC2CCC(C(=O)NC(c3ccccc3)c3ccccc3)N2C1=O
target-of-assay: 519858-162-T-J1-PDC complex spheroid growth, % test/control
result: < 7.00

compound: C=C(F)C(=O)N1CCN(c2nc(OCC3CCCN3C)nc3c2CCN(c2cccc4cccc(Cl)c24)C3)CC1CC#N (stereo not drawn) + Cc1c(S(C)(=O)=O)c(-c2cc(F)cc(N3CCN(c4ccc(NS(=O)(=O)c5ccc(NC(CCN6CCC(C(=O)OCCCP(=O)(O)O)CC6)CSc6ccccc6)c(S(=O)(=O)C(F)(F)F)c5)cc4)CC3)c2)c(-c2ccc(Cl)cc2)n1C(C)C
target-of-assay: 519858-162-T-J1-PDC complex spheroid growth, % test/control
result: > 7.50

compound: CCN1C(C(=O)NC23CCC(C(=O)O)(CC2)CC3)C(c2cccc(Cl)c2F)C2(C(=O)Nc3cc(Cl)ccc32)C12CCCCC2 (stereo not drawn) + Cc1c(S(C)(=O)=O)c(-c2cc(F)cc(N3CCN(c4ccc(NS(=O)(=O)c5ccc(NC(CCN6CCC(C(=O)OCCCP(=O)(O)O)CC6)CSc6ccccc6)c(S(=O)(=O)C(F)(F)F)c5)cc4)CC3)c2)c(-c2ccc(Cl)cc2)n1C(C)C
target-of-assay: 519858-162-T-J1-PDC complex spheroid growth, % test/control
result: < 5.52

compound: NC(=O)C(=Cn1cnc(-c2cc(C(F)(F)F)cc(C(F)(F)F)c2)n1)c1cncnc1 + Cc1c(S(C)(=O)=O)c(-c2cc(F)cc(N3CCN(c4ccc(NS(=O)(=O)c5ccc(NC(CCN6CCC(C(=O)OCCCP(=O)(O)O)CC6)CSc6ccccc6)c(S(=O)(=O)C(F)(F)F)c5)cc4)CC3)c2)c(-c2ccc(Cl)cc2)n1C(C)C
target-of-assay: 519858-162-T-J1-PDC complex spheroid growth, % test/control
result: < 6.52

compound: O=C(c1cc(Cc2n[nH]c(=O)c3ccccc23)ccc1F)N1CCN(C(=O)C2CC2)CC1 + CNC(C)C(=O)NC1CN(S(=O)(=O)c2cccc(S(=O)(=O)N3CCC4CCC(C(=O)NC(c5ccccc5)c5ccccc5)N4C(=O)C(NC(=O)C(C)NC)C3)c2)CCC2CCC(C(=O)NC(c3ccccc3)c3ccccc3)N2C1=O
target-of-assay: 519858-162-T-J1-PDC complex spheroid growth, % test/control
result: < 5.00

Provide pIC50 value for the following compound: NC(=O)C(=Cn1cnc(-c2cc(C(F)(F)F)cc(C(F)(F)F)c2)n1)c1cncnc1 + CNC(C)C(=O)NC1CN(S(=O)(=O)c2cccc(S(=O)(=O)N3CCC4CCC(C(=O)NC(c5ccccc5)c5ccccc5)N4C(=O)C(NC(=O)C(C)NC)C3)c2)CCC2CCC(C(=O)NC(c3ccccc3)c3ccccc3)N2C1=O
< 6.52

Provide pIC50 value for the following compound: O=C(c1cc(Cc2n[nH]c(=O)c3ccccc23)ccc1F)N1CCN(C(=O)C2CC2)CC1 + Cc1c(S(C)(=O)=O)c(-c2cc(F)cc(N3CCN(c4ccc(NS(=O)(=O)c5ccc(NC(CCN6CCC(C(=O)OCCCP(=O)(O)O)CC6)CSc6ccccc6)c(S(=O)(=O)C(F)(F)F)c5)cc4)CC3)c2)c(-c2ccc(Cl)cc2)n1C(C)C
< 5.00

Provide pIC50 value for the following compound: C#Cc1c(F)ccc2cc(O)cc(-c3ncc4c(N5CC6CCC(C5)N6)nc(OCC56CCCN5CC(F)C6)nc4c3F)c12 (stereo not drawn) + Cc1c(S(C)(=O)=O)c(-c2cc(F)cc(N3CCN(c4ccc(NS(=O)(=O)c5ccc(NC(CCN6CCC(C(=O)OCCCP(=O)(O)O)CC6)CSc6ccccc6)c(S(=O)(=O)C(F)(F)F)c5)cc4)CC3)c2)c(-c2ccc(Cl)cc2)n1C(C)C
< 5.00

Provide pIC50 value for the following compound: C=C(F)C(=O)N1CCN(c2nc(OCC3CCCN3C)nc3c2CCN(c2cccc4cccc(Cl)c24)C3)CC1CC#N (stereo not drawn) + CNC(C)C(=O)NC1CN(S(=O)(=O)c2cccc(S(=O)(=O)N3CCC4CCC(C(=O)NC(c5ccccc5)c5ccccc5)N4C(=O)C(NC(=O)C(C)NC)C3)c2)CCC2CCC(C(=O)NC(c3ccccc3)c3ccccc3)N2C1=O
< 5.00

Provide pIC50 value for the following compound: C#Cc1c(F)ccc2cc(O)cc(-c3ncc4c(N5CC6CCC(C5)N6)nc(OCC56CCCN5CC(F)C6)nc4c3F)c12 (stereo not drawn) + CNC(C)C(=O)NC1CN(S(=O)(=O)c2cccc(S(=O)(=O)N3CCC4CCC(C(=O)NC(c5ccccc5)c5ccccc5)N4C(=O)C(NC(=O)C(C)NC)C3)c2)CCC2CCC(C(=O)NC(c3ccccc3)c3ccccc3)N2C1=O
< 5.00
